B1: F1*; the commonest letter at each place (parent)
chain: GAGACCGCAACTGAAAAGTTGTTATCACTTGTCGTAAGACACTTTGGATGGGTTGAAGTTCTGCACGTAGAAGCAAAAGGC

variants of: B1; assay: fraction ligated after 30 min (ligated reads / total reads); higher = more ligase activity; details: with F1*sub RNA substrate (template-directed ligation), 42 °C
Result Type: fraction ligated

{"columns": ["Residues", "Test Result"],
 "data": [
  ["GAGACCGCAACTGAAAAGTTGTTATCACGTGTCGTATGACACTTTGGATGGGTTGAAGTTCTGCACGTAGAAGCAAAAGGC [T29G A37T]", 0.828],
  ["GAGACCGCAACTGAAAAGTTGTTAACAGTTGTCGTAAGACACTTTGGATGGGTTGAAGTTCTGCACGTAGAAGCAAAAGGC [T25A C28G]", 0.431],
  ["GAGACCGCAACTGAAAAGTTGTTATCGCTTGTCGTAAGACACTTTGAATGGGTTGAAGTTCTGCACGTAGAAGCAAAAGGC [A27G G47A]", 0.805],
  ["GAGACCGCAACTGAAAAGTTGTTATCACTTGTCGTAAGACACTTTGGTCGGGTTGAAGTTCTGCACGTAGAAGCAAAAGGC [A48T T49C]", 0.139],
  ["GAGACCGCAACTGAAAAGTTGTTATCACTTGTAGTAAGACACTTTGGATGGGTTGGAGTTCTGCACGTAGAAGCAAAAGGC [C33A A56G]", 0.812],
  ["GAGACCGCAACTGAAAAGTTGTTATCACTTACCGTAAGACACTTTGGATGGGTTGAAGTTCTGCACGTAGAAGCAAAAGGC [G31A T32C]", 0.811],
  ["GAGACCGCAACTGAAAAGTTGTTATCACTTGTCGTAAGACACTTTGGATGGATTGAAGTTCTGCACGTAGAAGCAAAAGGC [G52A]", 0.827],
  ["GAGACCGCAACTGAAAAGTTGTTATTACTTTTCGTAAGACACTTTGGATGGGTTGAAGTTCTGCACGTAGAAGCAAAAGGC [C26T G31T]", 0.585]
]}
